Protocol: Inhibition of TEL-fused KDR (unknown origin) expressed in mouse Ba/F3 cells assessed as inhibition of cell proliferation after 72 hrs by cell counting kit-8 assay
Value Kind: pIC50
Answers are plain numbers, as −log10 of the molar value.

So what's the measured pIC50 for this one? `Cc1n[nH]c2ccc(-c3cc(N[C@@H](CO)c4ccccc4)cnc3-c3cc(F)ccc3O)cc12` 8.01

----------
Protocol: Inhibition of FGFR1OP2 fused FGFR1 in human KG1 cells assessed as inhibition of cell proliferation after 72 hrs by cell counting kit-8 assay
Value Kind: pIC50
Give bare numbers, as −log10 of the molar value.

So what's the measured pIC50 for this one? `Cc1n[nH]c2ccc(-c3cc(N[C@@H](CO)c4ccccc4)cnc3-c3cc(F)ccc3O)cc12` 7.82

----------
Protocol: Inhibition of FGFR1 in human NCI-H1581 cells assessed as inhibition of cell proliferation after 72 hrs by cell counting kit-8 assay
Value Kind: IC50 (nM)
Numbers only, in nM.

So what's the measured IC50 for this one? `Cc1n[nH]c2ccc(-c3cc(N[C@@H](CO)c4ccccc4)cnc3-c3cc(F)ccc3O)cc12` 391
